Here, each record is paired with measured viability, T/C data.
System: Hs578T multi-cell spheroids, viability
Test: Anticancer human tumor Hs578T cell line growth inhibition [IpAb];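 further: drug exposure lasted 7 days before readout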
Conditions: second compound 0.1 µM; first compound 0.000316 µM; active compounds read low
Description: Combinatorial screen of targeted agents with ipatasertib and abemaciclib in multi-cell type tumor spheroids […] Compounds. […] If the clinical Cmax for an agent had not been determined, the highest concentration tested was 10 microM. NCI60 Cell Culture. […] The optimal seeding densities for each of the cell lines at each time point assessed were determined prior to performing the concentration response studies. […]
observable: viability, T/C (%)

| compound | unitAbbrev | recordedResult |
| --- | --- | --- |
| Cn1ncnc1[C@H]1c2n[nH]c(=O)c3cc(F)cc(c23)N[C@@H]1c1ccc(F)cc1 + CC(C)NCC(C(=O)N1CCN(c2ncnc3c2C(C)CC3O)CC1)c1ccc(Cl)cc1 | % | 97.6 |
| Cn1ncnc1[C@H]1c2n[nH]c(=O)c3cc(F)cc(c23)N[C@@H]1c1ccc(F)cc1 + CCN1CCN(Cc2ccc(Nc3ncc(F)c(-c4cc(F)c5nc(C)n(C(C)C)c5c4)n3)nc2)CC1 | % | 84.9 |
| CC(C)n1nc(-c2ccc3oc(N)nc3c2)c2c(N)ncnc21 + CC(C)NCC(C(=O)N1CCN(c2ncnc3c2C(C)CC3O)CC1)c1ccc(Cl)cc1 | % | 94.8 |
| CC(C)n1nc(-c2ccc3oc(N)nc3c2)c2c(N)ncnc21 + CCN1CCN(Cc2ccc(Nc3ncc(F)c(-c4cc(F)c5nc(C)n(C(C)C)c5c4)n3)nc2)CC1 | % | 78.8 |

----------
System: Hs578T multi-cell spheroids, viability
Assay: Anticancer human tumor Hs578T cell line growth inhibition [IpAb]; active = viability on the fitted dose curve at most 10% of control; inactive = the rest;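 further: drug exposure lasted 7 days before readout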
Conditions: second compound 0.1 µM; first compound 0.3 µM
Experimental: Combinatorial screen of targeted agents with ipatasertib and abemaciclib in multi-cell type tumor spheroids […] Compounds. […] If the clinical Cmax for an agent had not been determined, the highest concentration tested was 10 microM. NCI60 Cell Culture. […] The optimal seeding densities for each of the cell lines at each time point assessed were determined prior to performing the concentration response studies. […]
Outcome codes: t = active, f = inactive

| molecule | assignedLabel |
| --- | --- |
| Cn1cnc2c(F)c(Nc3ccc(Br)cc3Cl)c(C(=O)NOCCO)cc21 + CC(C)NCC(C(=O)N1CCN(c2ncnc3c2C(C)CC3O)CC1)c1ccc(Cl)cc1 | f |
| Cn1cnc2c(F)c(Nc3ccc(Br)cc3Cl)c(C(=O)NOCCO)cc21 + CCN1CCN(Cc2ccc(Nc3ncc(F)c(-c4cc(F)c5nc(C)n(C(C)C)c5c4)n3)nc2)CC1 | f |
| CC(C)(C)c1cnc(CSc2cnc(NC(=O)C3CCNCC3)s2)o1 + CCN1CCN(Cc2ccc(Nc3ncc(F)c(-c4cc(F)c5nc(C)n(C(C)C)c5c4)n3)nc2)CC1 | t |
| CC(=O)c1c(C)c2cnc(Nc3ccc(N4CCNCC4)cn3)nc2n(C2CCCC2)c1=O + CCN1CCN(Cc2ccc(Nc3ncc(F)c(-c4cc(F)c5nc(C)n(C(C)C)c5c4)n3)nc2)CC1 | f |
| CC(C)(C)c1cnc(CSc2cnc(NC(=O)C3CCNCC3)s2)o1 + CC(C)NCC(C(=O)N1CCN(c2ncnc3c2C(C)CC3O)CC1)c1ccc(Cl)cc1 | t |
| CC(=O)c1c(C)c2cnc(Nc3ccc(N4CCNCC4)cn3)nc2n(C2CCCC2)c1=O + CC(C)NCC(C(=O)N1CCN(c2ncnc3c2C(C)CC3O)CC1)c1ccc(Cl)cc1 | f |

----------
system: Hs578T multi-cell spheroids, viability; assay: Anticancer human tumor Hs578T cell line growth inhibition [IpAb]; conditions: second compound 0.316 µM; first compound 0.00949 µM; active compounds read low;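 further: drug exposure lasted 7 days before readout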

| compound | viability, T/C / % |
| --- | --- |
| CC(=O)c1c(C)c2cnc(Nc3ccc(N4CCNCC4)cn3)nc2n(C2CCCC2)c1=O + CC(C)NCC(C(=O)N1CCN(c2ncnc3c2C(C)CC3O)CC1)c1ccc(Cl)cc1 | 70.3 |
| Cn1cnc2c(F)c(Nc3ccc(Br)cc3Cl)c(C(=O)NOCCO)cc21 + CC(C)NCC(C(=O)N1CCN(c2ncnc3c2C(C)CC3O)CC1)c1ccc(Cl)cc1 | 87.7 |
| CC(C)(C)c1cnc(CSc2cnc(NC(=O)C3CCNCC3)s2)o1 + CC(C)NCC(C(=O)N1CCN(c2ncnc3c2C(C)CC3O)CC1)c1ccc(Cl)cc1 | 93.5 |

----------
system: Hs578T multi-cell spheroids, viability; assay: Anticancer human tumor Hs578T cell line growth inhibition [IpAb]; settings: second compound 1 µM; first compound 0.949 µM; active compounds read low;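 further: drug exposure lasted 7 days before readout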

| molecule | system | viability, T/C |
| --- | --- | --- |
| Cn1cnc2c(F)c(Nc3ccc(Br)cc3Cl)c(C(=O)NOCCO)cc21 + CCN1CCN(Cc2ccc(Nc3ncc(F)c(-c4cc(F)c5nc(C)n(C(C)C)c5c4)n3)nc2)CC1 | Hs578T multi-cell spheroids, viability | 69.2% |
| CC(C)(C)c1cnc(CSc2cnc(NC(=O)C3CCNCC3)s2)o1 + CC(C)NCC(C(=O)N1CCN(c2ncnc3c2C(C)CC3O)CC1)c1ccc(Cl)cc1 | Hs578T multi-cell spheroids, viability | 2.45% |
| CC(C)(C)c1cnc(CSc2cnc(NC(=O)C3CCNCC3)s2)o1 + CCN1CCN(Cc2ccc(Nc3ncc(F)c(-c4cc(F)c5nc(C)n(C(C)C)c5c4)n3)nc2)CC1 | Hs578T multi-cell spheroids, viability | 2.79% |
| Cn1cnc2c(F)c(Nc3ccc(Br)cc3Cl)c(C(=O)NOCCO)cc21 + CC(C)NCC(C(=O)N1CCN(c2ncnc3c2C(C)CC3O)CC1)c1ccc(Cl)cc1 | Hs578T multi-cell spheroids, viability | 39.2% |

----------
tested on: Hs578T multi-cell spheroids, viability; experiment: Anticancer human tumor Hs578T cell line growth inhibition [IpAb]; details: second compound 0.01 µM; first compound 1 µM; active compounds read low;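 further: drug exposure lasted 7 days before readout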
observable: viability, T/C

| compound | observable | recordedResult |
| --- | --- | --- |
| C=CC(=O)N1CCN(c2nc(=O)n(-c3c(C)ccnc3C(C)C)c3nc(-c4c(O)cccc4F)c(F)cc23)C(C)C1 (stereo not drawn) + CCN1CCN(Cc2ccc(Nc3ncc(F)c(-c4cc(F)c5nc(C)n(C(C)C)c5c4)n3)nc2)CC1 | viability, T/C | 96.2% |
| COc1c(OCCCN2CCOCC2)ccc2c3n(c(=NC(=O)c4cnc(N)nc4)nc12)CCN3 + CCN1CCN(Cc2ccc(Nc3ncc(F)c(-c4cc(F)c5nc(C)n(C(C)C)c5c4)n3)nc2)CC1 | viability, T/C | 8.09% |
| Cn1ncc(Cl)c1-c1cc(C(=O)NC(CN)Cc2cccc(F)c2)sc1Cl (stereo not drawn) + CCN1CCN(Cc2ccc(Nc3ncc(F)c(-c4cc(F)c5nc(C)n(C(C)C)c5c4)n3)nc2)CC1 | viability, T/C | 49.1% |
| C=CCn1c(=O)c2cnc(Nc3ccc(N4CCN(C)CC4)cc3)nc2n1-c1cccc(C(C)(C)O)n1 + CCN1CCN(Cc2ccc(Nc3ncc(F)c(-c4cc(F)c5nc(C)n(C(C)C)c5c4)n3)nc2)CC1 | viability, T/C | 27.9% |
| Cn1nccc1Nc1nccc(-c2ccn(C(CO)c3ccc(Cl)c(F)c3)c(=O)c2)n1 (stereo not drawn) + CCN1CCN(Cc2ccc(Nc3ncc(F)c(-c4cc(F)c5nc(C)n(C(C)C)c5c4)n3)nc2)CC1 | viability, T/C | 88.8% |
| CC1(C)CCC(CN2CCN(c3ccc(C(=O)NS(=O)(=O)c4ccc(NCC5CCOCC5)c([N+](=O)[O-])c4)c(Oc4cnc5[nH]ccc5c4)c3)CC2)=C(c2ccc(Cl)cc2)C1 + CCN1CCN(Cc2ccc(Nc3ncc(F)c(-c4cc(F)c5nc(C)n(C(C)C)c5c4)n3)nc2)CC1 | viability, T/C | 99.8% |
| CCCS(=O)(=O)Nc1ccc(F)c(C(=O)c2c[nH]c3ncc(-c4ccc(Cl)cc4)cc23)c1F + CCN1CCN(Cc2ccc(Nc3ncc(F)c(-c4cc(F)c5nc(C)n(C(C)C)c5c4)n3)nc2)CC1 | viability, T/C | 97.4% |
| Cc1nc(NC(=O)N2CCCC2C(N)=O)sc1-c1ccnc(C(C)(C)C(F)(F)F)c1 (stereo not drawn) + CCN1CCN(Cc2ccc(Nc3ncc(F)c(-c4cc(F)c5nc(C)n(C(C)C)c5c4)n3)nc2)CC1 | viability, T/C | 61.1% |

----------
system: Hs578T multi-cell spheroids, viability; test: Anticancer human tumor Hs578T cell line growth inhibition [IpAb]; conditions: second compound 0.1 µM; first compound 3 µM; active compounds read low;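 further: drug exposure lasted 7 days before readout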

| compound | viability, T/C / % |
| --- | --- |
| CC(C)(C)c1cnc(CSc2cnc(NC(=O)C3CCNCC3)s2)o1 + CC(C)NCC(C(=O)N1CCN(c2ncnc3c2C(C)CC3O)CC1)c1ccc(Cl)cc1 | 3.3 |
| CC(C)(C)c1cnc(CSc2cnc(NC(=O)C3CCNCC3)s2)o1 + CCN1CCN(Cc2ccc(Nc3ncc(F)c(-c4cc(F)c5nc(C)n(C(C)C)c5c4)n3)nc2)CC1 | 3.11 |
| Cn1cnc2c(F)c(Nc3ccc(Br)cc3Cl)c(C(=O)NOCCO)cc21 + CC(C)NCC(C(=O)N1CCN(c2ncnc3c2C(C)CC3O)CC1)c1ccc(Cl)cc1 | 42.8 |
| Cn1cnc2c(F)c(Nc3ccc(Br)cc3Cl)c(C(=O)NOCCO)cc21 + CCN1CCN(Cc2ccc(Nc3ncc(F)c(-c4cc(F)c5nc(C)n(C(C)C)c5c4)n3)nc2)CC1 | 38.1 |
